Tested on: MS2 coat protein
Assay: apparent KD of MS2 coat protein; higher = weaker reporter binding
Details: Eterna round: R107; input ligand: arginine 13.2 mM
# class assignment by measured apparent KD of MS2 coat protein: bottom end (below 20 nM), midrange (20 nM to below 70 nM), top end (70 nM or more)

Worked set:
SEQUENCE_TEXT | TARGET_OF_ASSAY | CLASS_NAME
GAUCUGUCGGGUGAUACCAGCCUCGGCGCGUCUCGCGCUGAACAUGAGGAUCACCCAUGUGGCCCUUGGCAGCACAUGACAAAUC [Ditere] | MS2 coat protein | top end
CCAUGCGUAGGAAGGAGCGCAUACUUCACAUGAGGAUCACCCAUGUCGAGACGUGAGUCAGUGCAGGUAGGUCGCCUACGCAUGG [Same State - Arginine B (Freestyle 27)] | MS2 coat protein | bottom end
UUUAUUAUUGACUCGUUAUUGUUUUUGGAUCGAGGACCGGUACGGCCGCCACUCGUGAUAUACAUGAGGAUCACCCAUGUUAGCA [JR_Nu_SSTryptoA_Sub020] | MS2 coat protein | bottom end
CAGGCCUUGCCCGGUGUUCCGAAAGUGGAAGGAGCGCACAUUGGUGCAGGUAGGUCGCCACAUGAGGAUCACCCAUGUCUAGGCC [Aveatti] | MS2 coat protein | midrange
UAUUAUCAGUCGGCCGCCACUGACACAUGAGGAUCACCCAUGUAAUUUGGGUUAUAUAUAAAUUACAGGACCGGGACAAAUGCUA [JR_Nu13_ExcTryptoB_Sub025] | MS2 coat protein | top end
ACAUGAGGAUCACCCAUGUUCCUCGCCGAUACCAGUGAAGAAUUACGCCCUUGGCAGCGGAAUGAGUGUUUUGGAGAUGAGGUAC [6.aB] | MS2 coat protein | top end
ACAUGAGGAUCACCCAUGUAACGUCUUGAUACCAGACGAGAAGUAGUCCCUUGGCAGCAAAUACGUGAGGGUCACACAUGUGUAA [vvvmullin] | MS2 coat protein | bottom end
ACACGGCAUGAUGGAUCACCUCGUGAAUCACGAGGACCGGUACGGCCGCCACUCGAAAACCGUGACCUGUACGAAAAGUGCAGGA | MS2 coat protein | midrange
UCACAUGAGGAUCACCCAUGUACAGGCGAUACCAGCCGUACAUUGGGCCCUUGGCAGCGCAUCGAGACCUUUAUAAGCACCUCGG [Ceusbi] | MS2 coat protein | midrange
ACAUUAGUUGGCGAUACCAGCUAUAGGCCUUCUGGGCGACAUGAGGAUCACCCAUGUGAUGGCCCUUGGCAGCGCUGAUUGAUGU [SSTheo B #29] | MS2 coat protein | midrange

// query Lab log: UAUCGUCAGACGGCCGCCACUAGAACAUGAGGAUCACCCAUGUACGGCCGCUCGGUCCUCAUGACUAGGACCGGGUCUGACGAAU [(Trp1)-(Ms2)-(T)'-(M)'-(Trp2)_Design22] — assign apparent KD of MS2 coat protein category
// result bottom end

// query # bin lookup: classify UGUCAUGGAAACAUGACUGGUUCUACCGGUCGAGGACCGGUACGGCCGCCACUCGGUUGGUGGCACAUGAGGAUCACCCAUGUUA [SS Tryp A #13] by its apparent KD of MS2 coat protein
// result midrange

###

System: K4 kissing-loop RNA reporter;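 further: bound reporter read as fluorescence of individual clusters on recovered sequencing chips by microscopy, with normalized cluster intensities fitted with a binding model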
Experiment: apparent KD of K4 kissing-loop reporter; higher = weaker reporter binding
Settings: Eterna round: R107; input ligand: tryptophan 2.4 mM
# binarize apparent KD of K4 kissing-loop reporter: threshold 100 nM inclusive, high side condition met, low side condition not met

Some solved entries appear below for comparison.
SEQUENCE_TEXT | CLASS_NAME
GUGAAGGAGCUGCAGUGAUGUUGCAGAAACUAGGAUAUCAGGAAACUGAGAAGGAGUCAACUCCUUCACCUAAAUACUGCAGAAA [KL-SSFMN-A23] | condition met
UGAUAGGACAGAAGGAGCGGUAGUGAUGUUACCAAAAGGGUAAGGUGUCAAAAGACACCCUGCCAGGUAGGUCGCUGUCCUAUCU | condition not met

// query Is reported apparent KD of K4 kissing-loop reporter greater than or equal to 100 nM here: GUACAUUGGAAACAAGAACAAAUAACCGAAGGAGCGCGUGAAAACGCAGGUAGGUCGCGGAAGCAGUGAUGUUGCAUUAGAGAUC [Same State Arginine A GF 16]
// result condition not met

Where do these numbers come from? They come from the supplement of paper PMC9170038.
